Entries and their relative viability values follow.
System: NCI-H1793
protocolText: relative viability (nuclei count vs DMSO), 5 days (fraction); higher = more cells survive
conditionDescription: first compound 0.3162 µM

compound	testTarget	relative viability
CCN(CC)CCCCNc1ncc2cc(-c3cc(OC)cc(OC)c3)c(NC(=O)NC(C)(C)C)nc2n1 + CCNC(=O)c1noc(-c2cc(C(C)C)c(O)cc2O)c1-c1ccc(CN2CCOCC2)cc1 [Luminespib] (partner 0.01 µM)	NCI-H1793	0.157
O=c1cc(N2CCOCC2)oc2c(-c3cccc4c3sc3ccccc34)cccc12 + CCNC(=O)c1noc(-c2cc(C(C)C)c(O)cc2O)c1-c1ccc(CN2CCOCC2)cc1 [Luminespib] (partner 0.01 µM)	NCI-H1793	0.134

###

Test system: LXF-289
protocolText: relative viability (nuclei count vs DMSO), 5 days (fraction); higher = more cells survive
conditionDescription: first compound 2.53 µM
Entries and their relative viability values follow.
experimentalEndpoint: relative viability

compound	testTarget	observedResult
O=c1cc(-c2cccc3c2Sc2ccccc2S3)oc(N2CCOCC2)c1 + CS(=O)(=O)CCNCc1ccc(-c2ccc3ncnc(Nc4ccc(OCc5cccc(F)c5)c(Cl)c4)c3c2)o1 [Lapatinib] (partner 2 µM)	LXF-289	0.856
O=c1cc(-c2cccc3c2Sc2ccccc2S3)oc(N2CCOCC2)c1 + CC(C)C[C@H](NC(=O)[C@H](Cc1ccccc1)NC(=O)c1cnccn1)B(O)O [Bortezomib] (partner 0.002 µM)	LXF-289	0.988
COc1nc(C)cnc1NS(=O)(=O)c1cccnc1-c1ccc(-c2nnco2)cc1 [Zibotentan] + Cc1cc(Nc2cc(N3CCN(C)CC3)nc(Sc3ccc(NC(=O)C4CC4)cc3)n2)n[nH]1 [Tozasertib] (partner 0.1 µM)	LXF-289	0.225
COc1nc(C)cnc1NS(=O)(=O)c1cccnc1-c1ccc(-c2nnco2)cc1 [Zibotentan] + COc1cccc2cc(-c3nc([C@H]4CC[C@H](C(=O)O)CC4)n4ncnc(N)c34)[nH]c12 [OSI-027] (partner 0.5 µM)	LXF-289	0.839
COc1nc(C)cnc1NS(=O)(=O)c1cccnc1-c1ccc(-c2nnco2)cc1 [Zibotentan] + C[C@@H](Oc1cc(-c2cnn(C3CCNCC3)c2)cnc1N)c1c(Cl)ccc(F)c1Cl [Crizotinib] (partner 1 µM)	LXF-289	0.805
COc1nc(C)cnc1NS(=O)(=O)c1cccnc1-c1ccc(-c2nnco2)cc1 [Zibotentan] + COc1cc2c(Oc3ccc(NC(=O)C4(C(=O)Nc5ccc(F)cc5)CC4)cc3F)ccnc2cc1OCCCN1CCOCC1 [Foretinib] (partner 0.25 µM)	LXF-289	0.954
O=c1cc(-c2cccc3c2Sc2ccccc2S3)oc(N2CCOCC2)c1 + Nc1nc2[nH]cc(CCc3ccc(C(=O)N[C@@H](CCC(=O)O)C(=O)O)cc3)c2c(=O)[nH]1 [Pemetrexed] (partner 0.2 µM)	LXF-289	0.93
O=c1cc(-c2cccc3c2Sc2ccccc2S3)oc(N2CCOCC2)c1 + CC(=O)Nc1cccc(-n2c(=O)n(C3CC3)c(=O)c3c(Nc4ccc(I)cc4F)n(C)c(=O)c(C)c32)c1 [Trametinib] (partner 0.02 µM)	LXF-289	0.651
O=c1cc(-c2cccc3c2Sc2ccccc2S3)oc(N2CCOCC2)c1 + CC1(C)CCC(c2ccc(Cl)cc2)=C(CN2CCN(c3ccc(C(=O)NS(=O)(=O)c4ccc(N[C@H](CCN5CCOCC5)CSc5ccccc5)c(S(=O)(=O)C(F)(F)F)c4)cc3)CC2)C1 [Navitoclax] (partner 0.5 µM)	LXF-289	0.951
O=c1cc(-c2cccc3c2Sc2ccccc2S3)oc(N2CCOCC2)c1 + NC(=O)Nc1cc(-c2cccc(F)c2)sc1C(=O)N[C@H]1CCCNC1 [AZD7762] (partner 0.2 µM)	LXF-289	1.09
O=c1cc(-c2cccc3c2Sc2ccccc2S3)oc(N2CCOCC2)c1 + CS(=O)(=O)N1CCN(Cc2cc3nc(-c4cccc5[nH]ncc45)nc(N4CCOCC4)c3s2)CC1 [Pictilisib] (partner 1 µM)	LXF-289	0.747
COc1nc(C)cnc1NS(=O)(=O)c1cccnc1-c1ccc(-c2nnco2)cc1 [Zibotentan] + NC(=O)Nc1cc(-c2cccc(F)c2)sc1C(=O)N[C@H]1CCCNC1 [AZD7762] (partner 0.2 µM)	LXF-289	1.08
COc1nc(C)cnc1NS(=O)(=O)c1cccnc1-c1ccc(-c2nnco2)cc1 [Zibotentan] + Nc1nc2[nH]cc(CCc3ccc(C(=O)N[C@@H](CCC(=O)O)C(=O)O)cc3)c2c(=O)[nH]1 [Pemetrexed] (partner 0.2 µM)	LXF-289	0.916
COc1nc(C)cnc1NS(=O)(=O)c1cccnc1-c1ccc(-c2nnco2)cc1 [Zibotentan] + CS(=O)(=O)N1CCN(Cc2cc3nc(-c4cccc5[nH]ncc45)nc(N4CCOCC4)c3s2)CC1 [Pictilisib] (partner 1 µM)	LXF-289	0.783
O=c1cc(-c2cccc3c2Sc2ccccc2S3)oc(N2CCOCC2)c1 + C[C@]1(O)C[C@@H](c2nc(-c3ccc4ccc(-c5ccccc5)nc4c3)c3c(N)nccn32)C1 [Linsitinib] (partner 1 µM)	LXF-289	0.96
